biological target: Thermosynechococcus elongatus PKUAC-SCTE542 protoporphyrinogen IX oxidase CyPPO19, wild type, SEQ ID NO: 1 (MBP fusion) (Thermosynechococcus sichuanensis); assay: PPO enzyme inhibition assay (IC50 for herbicides), CyPPO19 wild type fused to MBP; type: biochemical
Sequence (A0A7D6JSC1 1-467): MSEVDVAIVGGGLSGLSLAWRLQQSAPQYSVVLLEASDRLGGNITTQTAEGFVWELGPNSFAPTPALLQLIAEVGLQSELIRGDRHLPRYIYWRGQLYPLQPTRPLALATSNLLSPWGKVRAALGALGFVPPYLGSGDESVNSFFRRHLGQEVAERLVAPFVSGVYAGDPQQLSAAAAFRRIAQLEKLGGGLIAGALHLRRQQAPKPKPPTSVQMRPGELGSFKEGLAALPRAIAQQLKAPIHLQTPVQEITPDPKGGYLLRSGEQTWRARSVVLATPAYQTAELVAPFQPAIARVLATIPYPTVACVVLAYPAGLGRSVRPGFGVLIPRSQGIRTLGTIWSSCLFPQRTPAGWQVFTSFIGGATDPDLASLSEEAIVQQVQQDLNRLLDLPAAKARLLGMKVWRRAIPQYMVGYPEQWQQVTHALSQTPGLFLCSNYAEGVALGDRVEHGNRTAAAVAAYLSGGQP
For each entry below, report its pIC50 value.
The read-out pIC50 is expressed as -log10 of concentration in moles per litre.

I have this compound here, CCOc1cc(Oc2ccc(C(F)(F)F)cc2Cl)ccc1[N+](=O)[O-] , and I need its recorded pIC50.
6.24

Request: CS(=O)(=O)NC(=O)c1cc(Oc2ccc(C(F)(F)F)cc2Cl)ccc1[N+](=O)[O-]
6.62
